Biological target: human mAChRM1 (Homo sapiens, UniProt P11229)
Construct: host or cells: CHO-K1
Sequence (P11229 1-460): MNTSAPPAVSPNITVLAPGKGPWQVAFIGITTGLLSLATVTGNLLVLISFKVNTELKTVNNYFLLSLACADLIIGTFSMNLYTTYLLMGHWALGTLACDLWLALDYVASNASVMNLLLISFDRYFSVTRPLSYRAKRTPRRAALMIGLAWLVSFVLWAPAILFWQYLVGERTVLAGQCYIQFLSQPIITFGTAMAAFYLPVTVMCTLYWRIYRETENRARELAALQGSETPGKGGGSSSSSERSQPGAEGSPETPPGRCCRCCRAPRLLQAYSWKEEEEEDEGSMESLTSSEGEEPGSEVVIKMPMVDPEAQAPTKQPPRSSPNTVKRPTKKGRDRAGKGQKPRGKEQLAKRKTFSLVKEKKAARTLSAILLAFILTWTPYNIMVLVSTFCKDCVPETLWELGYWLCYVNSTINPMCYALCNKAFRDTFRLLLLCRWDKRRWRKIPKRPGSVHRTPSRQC
Experiment: mAChR M1 cell-based functional assay (calcium mobilization), positive allosteric modulator activity: increase in the EC20 acetylcholine response
Settings: increase in the EC20 acetylcholine response, read-out: PAM Activity Human M1 EC50
pEC50: −log10 of the molar value.
quantity.name: pEC50

Answered examples (4):
// compound Cn1cc2c(-c3cc(F)c(CN4Cc5ncccc5C4=O)c(F)c3)ccc(C(C)(O)C3CC3)c2n1 (centres unmarked) [Compound 80] , assay human mAChRM1 (Homo sapiens, UniProt P11229), pEC50 value: 6.43

// compound Cc1cc(-c2cc(C(C)(C)O)c3nn(C)cc3c2)cc(F)c1CN1Cc2cccc(F)c2C1=O [Compound 168] , assay human mAChRM1 (Homo sapiens, UniProt P11229), pEC50 value: 6.00

// compound CC(C)(O)c1ccc(-c2cc(F)c(CN3Cc4ncccc4C3=O)cc2F)cc1 [Compound 49] , assay human mAChRM1 (Homo sapiens, UniProt P11229), pEC50 value: 5.92

// compound Cn1cc2cc(-c3cc(F)c(CN4Cc5cccc(F)c5C4=O)cc3F)cc(C(C)(C)O)c2n1 [Compound 169] , assay human mAChRM1 (Homo sapiens, UniProt P11229), pEC50 value: 6.23

(I) Cc1cc(-c2ccc(C(C)(C)O)c3nn(C)cc23)cc(F)c1CN1Cc2ncccc2C1=O [Compound 2]
(II) Cn1cc2c(-c3cc(F)c(CN4Cc5ncccc5C4=O)c(F)c3)ccc(C(O)(C3CC3)C3CC3)c2n1 [Compound 84]
(III) Cn1cc2c(-c3ccc(CN4Cc5ncccc5C4=O)c(F)c3F)ccc(C(C)(C)O)c2n1 [Compound 63]
(IV) Cc1cc(-c2ccc(C(C)(C)O)c3ncccc23)cc(F)c1CN1Cc2ncccc2C1=O [Compound 53]
Query: Parameters: sort_field (pEC50), sort_dir (desc). Give your ranking as a list of the labels in the requested order.
Reply: I, III, II, IV

Ref: patent US20260138978A1
